# protocol: physchem
# condition label: pampa, pH 7.4

| compound | Papp, ×10⁻⁶ cm/s |
| --- | --- |
| CNC(=C[N+](=O)[O-])NCCSCc1ccc(CN(C)C)o1.Cl [RANITIDINE HYDROCHLORIDE] | 2.2 |

----------
# protocol: Cytotoxicity against human A549 cells assessed as cell viability recovery up to 440 uM by MTT assay relative to untreated control
# Format: cell-based
# condition label: read-out: Activity

| compound | viability |
| --- | --- |
| CC(C)Nc1nc(NC2CCCCC2)c2ccccc2n1 | > 60% |

----------
# protocol: Cytotoxicity against human A549 cells assessed as cell viability recovery up to 459 uM by MTT assay relative to untreated control
# Assay type: cell-based
# condition label: read-out: Activity
measured metric: viability

| compound | measured metric | experimental value |
| --- | --- | --- |
| CCCCNc1nc(NCCCC)c2ccccc2n1 | viability | > 50% |
